Reference source for all entries: the supplement of paper PMC10567573

assay: protein stability index of a GFP-peptide fusion (GPS, HEK-293T) (PSI 1-6); higher = more stable; conditions: treatment: DMSO; c terminus: a fixed tail appended;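 further: 24-mer peptide tiles fused after GFP, lentivirally expressed, FACS-sorted into six equal bins by GFP/DsRed ratio, decoded by Illumina sequencing, PSI is the read-weighted mean bin number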
So basically: protein stability index at 4 or higher? That is Y. Lower than 4? That is N.

Has KGCSLEQISMELAKVNYVKNNICF [SLC2A12] a recorded protein stability index greater than or equal to 4?
N

Record: IQYLTENIWASQSVLSACDNLSDL [IQUB]
N

Queued: PDKKKRPRRSLSISKNKKKASNSI [FAN1]
Y

Consider next the sequence VSPPESPTVTTSWQSESLPVSLSA [BCL2L13] in the same way.
Y

What do you have for YSYLVLLFPVFLATDYLRYKPVVL [SLC19A2] ?
N

Would you kindly repeat that for CSTTDHPYKKPYMETSPSEEDSFY [TBX5] ?
Y

Another: THVLSKEVQHLREEKSKQFLDLME [LRRC45]
N

Now try RPGPSASAASSAAAGEPLECPTCG [RNF208] .
Y

Do the same for PVSGKAVFMEFGPPNQQMSPSPMS [DLX1] please
N

How about LSEGSSNEDEDLGPCEGPSKEDKD [SPANXN3] ?
Y

For SPSNVQKWLLWTEHQYRLPPMGKA [SPDEF] then?
N

---

assay: protein stability index of a GFP-peptide fusion (GPS, HEK-293T) (PSI 1-6); higher = more stable; conditions: treatment: DMSO; c terminus: a fixed tail appended
Everything with protein stability index lower than 3 is no; everything else, including exactly 3, is yes.

protein stability index >= 3 for VLEVTEESIDFDQGELADQDVDPV [FBXO33] ?
yes

Can you handle SQLAGQVNVEMDAAPGVDLTRVLA [KRT15] next?
yes

Repeat for the following sequence: RPSFNRTPIPWLSSGEPVDYNVDI [MYOZ1]
yes

Moving on to LHDARLLRTIPSPYPASKADIPSV [DCAF4]
yes

Follow-up entry: MAKTLVFSKVKTSLGLDHCHSFIS [ACSBG2]
no

LVNMGISVVSYTLKDIHDDQDYLH [FLOT1] ?
no

VESSLDKVVLSDAYAHPQQKVAVY [TRADD] ?
no

What about this sequence? LRATVERMGLMKANHVFFLLYLLH [FADS1]
no

And what about the sequence DPDGLVATYISEVHEHDGHLYLGS [APMAP] ?
yes

---

assay: protein stability index of a GFP-peptide fusion (GPS, HEK-293T) (PSI 1-6); higher = more stable; conditions: treatment: DMSO; c terminus: a fixed tail appended
# label = met if protein stability index >= 3 else not met

Is protein stability index at least 3? Consider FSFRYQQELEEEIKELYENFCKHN [ATL3]
not met

Now this one: VVTMTTVGYGDMHPVTIGGKIVGS [KCNA3]
not met

Now the sequence EKLTKITRTGPSAWETKKILAVSF [PCMTD2]
not met

Queued: SESSPSDFSVSLKASGKNKHFKVQ [NCK2]
met

---

Please respond with reported protein stability index for every item in the list.
assay: protein stability index of a GFP-peptide fusion (GPS, HEK-293T) (PSI 1-6); higher = more stable; conditions: treatment: DMSO; c terminus: a fixed tail appended
Field format: numeric only.

Which protein stability index value is on record for RRHTSMERYDPNIDQWSMLGDMQT [KLHL12] ?
3.86

How about STARRSRAASSQRAEEEDDDIKQL [CHMP4C] ?
5.59

// next record HCHKRRTRSCSSASSRSQQSSKRS [CLK3]
5.19

And then GRRAATALLWLSCSIALLRALATS [GNAS] , what is it?
2.26

Quick one: GSPQQPGLSAPHSRQIPAPQGAVL [KISS1]
4.3

And for LAGGYTSSLACHRALQDAFSGLFW [MNAT1] ?
2.44
